The reported numbers originate from patent US10183009B2.

target: UniProt Q9H8M2; experiment: BRD9 AlphaLisa Binding Assay
Sequence (Q9H8M2 134-239 limits assumed): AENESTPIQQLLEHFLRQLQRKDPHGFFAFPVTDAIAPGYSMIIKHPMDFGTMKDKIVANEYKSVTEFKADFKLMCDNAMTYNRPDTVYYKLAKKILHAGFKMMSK
reported-property: IC50 (µM)

Example cases with answers are listed next.
INSERT INTO measurements (smiles, target_system, reported_property, unit_spec, meas_value) VALUES
  ('C/C=C/Cn1cc(-c2cc(C(=O)NCCC)ccc2OC)c2cc[nH]c2c1=O', 'UniProt Q9H8M2', 'IC50', 'µM', 0.027),
  ('C/C=C/Cn1cc(-c2ccc(C(=O)N3CCCC3)c(Cl)c2)c2cc(C)[nH]c2c1=O', 'UniProt Q9H8M2', 'IC50', 'µM', 0.01),
  ('C/C=C/Cn1cc(-c2ncc(C(=O)N3CCN(C)CC3)cc2OC)c2cc(C)[nH]c2c1=O', 'UniProt Q9H8M2', 'IC50', 'µM', 0.039);

A. C/C=C/Cn1cc(-c2ccc(C(=O)N3CCC(C(=O)O)CC3)c(Cl)c2)c2cc(C)[nH]c2c1=O
B. COc1ccc(C(=O)N(C)C)cc1-c1cn(CCC2CC2)c(=O)c2[nH]c(C)cc12
C. CCCCn1cc(-c2cc(C(=O)N(C)C)ccc2OC)c2cc(C)[nH]c2c1=O
[in] List from greatest to least IC50. The response must list the labels following the requested ordering.
[out] B, C, A
